Entry source: ChEMBL document CHEMBL3832087

test_summary: Evaluation of pharmacokinetic parameters for Zafirlukast following oral administration of Zafirlukast tablets in subjects of varying health status.
Assay type: ADME, organism-based
conditions: human, in vivo, dosed compound id 45, dosed compound name ZAFIRLUKAST, gender male and female, tissue Plasma
observed_property: half-life

IN: Give the measured half-life of COc1cc(C(=O)NS(=O)(=O)c2ccccc2C)ccc1Cc1cn(C)c2ccc(NC(=O)OC3CCCC3)cc12 .
OUT: 600 min

====

test_summary: Evaluation of pharmacokinetic parameters for Zafirlukast following oral administration of Zafirlukast tablets in subjects of varying health status.
Type: ADME, organism-based
conditions: human, in vivo, dosed compound id 45, dosed compound name ZAFIRLUKAST, tissue Plasma
observed_property: Tmax (h)
Give the value, in units of h, as a plain number.

IN: Reported Tmax for COc1cc(C(=O)NS(=O)(=O)c2ccccc2C)ccc1Cc1cn(C)c2ccc(NC(=O)OC3CCCC3)cc12 : what is it?
OUT: 3

====

test_summary: Evaluation of pharmacokinetic parameters for Zafirlukast following oral administration of Zafirlukast tablets in subjects of varying health status.
Assay type: ADME, organism-based
conditions: human, in vivo, dosed compound id 45, dosed compound name ZAFIRLUKAST, tissue Plasma, read-out: Vss/F
observed_property: Vd/F (L)
The figure you give is taken to be in L; do not add the unit.

IN: What does the data say about its Vd/F? Entry: COc1cc(C(=O)NS(=O)(=O)c2ccccc2C)ccc1Cc1cn(C)c2ccc(NC(=O)OC3CCCC3)cc12
OUT: 70

====

test_summary: Evaluation of pharmacokinetic parameters for Zafirlukast following oral administration of Zafirlukast tablets in subjects of varying health status.
Assay type: ADME, organism-based
conditions: human, dosed compound id 45, dosed compound name ZAFIRLUKAST, tissue Plasma, read-out: Protein binding
observed_property: fraction unbound
No unit in the answer, only the number.

IN: // query fraction unbound value for entry COc1cc(C(=O)NS(=O)(=O)c2ccccc2C)ccc1Cc1cn(C)c2ccc(NC(=O)OC3CCCC3)cc12
OUT: 0.01

====

test_summary: Evaluation of pharmacokinetic parameters for Zafirlukast following single oral administration to healthy boys and girls.
Assay type: ADME, organism-based
Parameters: dose 20 mg, route oral
conditions: both, human, in vivo; dose 20 mg, dosed compound id 45, dosed compound name ZAFIRLUKAST, gender male and female, regimen Single dose, route oral, tissue Plasma
observed_property: Tmax (h)
Write the answer as a number in h, unit excluded.

IN: Dear colleague, I am looking for the recorded Tmax of the following molecule: COc1cc(C(=O)NS(=O)(=O)c2ccccc2C)ccc1Cc1cn(C)c2ccc(NC(=O)OC3CCCC3)cc12
OUT: 2.1

====

test_summary: Evaluation of pharmacokinetic parameters for Zafirlukast following single oral administration to healthy boys and girls.
Assay type: ADME, organism-based
Parameters: dose 20 mg, route oral
conditions: both, human, in vivo; dose 20 mg, dosed compound id 45, dosed compound name ZAFIRLUKAST, regimen Single dose, route oral, tissue Plasma
observed_property: half-life (h)
Kindly provide the numeric value in h only, without the unit symbol.

IN: Entry under review: COc1cc(C(=O)NS(=O)(=O)c2ccccc2C)ccc1Cc1cn(C)c2ccc(NC(=O)OC3CCCC3)cc12 . Reported half-life?
OUT: 13.3
